target: MKNK1 (Homo sapiens, UniProt Q9BUB5, T385D); construct: GST (N); purchased Carna Biosciences 02-145; host or cells: insect cells (baculovirus expression system); experiment: MKNK1 kinase high ATP assay (TR-FRET-based); format: biochemical; details: Table 2b; 2 mM ATP, 15 min preincubation
Sequence (Q9BUB5 1-424 isoform Q9BUB5-2 T344D): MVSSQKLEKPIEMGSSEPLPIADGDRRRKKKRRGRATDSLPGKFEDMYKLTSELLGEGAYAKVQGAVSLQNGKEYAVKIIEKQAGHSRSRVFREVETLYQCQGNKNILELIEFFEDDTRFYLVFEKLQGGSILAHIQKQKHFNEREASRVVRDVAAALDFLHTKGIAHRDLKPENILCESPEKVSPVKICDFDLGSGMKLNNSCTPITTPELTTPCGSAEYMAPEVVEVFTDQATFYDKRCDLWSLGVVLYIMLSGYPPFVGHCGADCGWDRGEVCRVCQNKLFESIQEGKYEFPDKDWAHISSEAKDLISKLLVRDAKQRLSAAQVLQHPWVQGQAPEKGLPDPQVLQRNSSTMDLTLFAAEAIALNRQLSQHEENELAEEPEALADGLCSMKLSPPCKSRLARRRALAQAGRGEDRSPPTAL
metric: IC50 (nM)

# compound.structure.string, measured.result
rows = [
    ("CCN(CCOC)c1cccc2oc(-c3cnc4ccc(OCCCS(C)(=O)=O)nn34)cc12", 1.9),
    ("COc1ccc2ncc(-c3cc4c(N5CCN[C@@H](C)C5)cccc4o3)n2n1", 4.4),
    ("C[C@H](N)COc1ccc2ncc(-c3cc4c(N5CCO[C@H](C)C5)cccc4o3)n2n1", 49.2),
    ("COC[C@H]1CCCN1c1cccc2oc(-c3cnc4ccc(O[C@H]5C[C@H](N)C5)nn34)cc12", 3.5),
    ("c1cc(N2CCOCC2)c2cc(-c3cnc4ccc(O[C@@H]5CCNC5)nn34)oc2c1", 58),
]

P. C[C@H]1CNCCN1c1cccc2oc(-c3cnc4ccc(OC[C@H]5CCC(=O)N5)nn34)cc12
Q. C[C@H]1CN(c2cccc3oc(-c4cnc5ccc(OC[C@@H]6CCC(=O)N6)nn45)cc23)CCO1
Prompt line: Please choose the item with the lower IC50 value from this pair: P and Q Kindly state the label of the option you pick.
Response line: P
(P: 0.6 nM, Q: 30.4 nM)

a. CC1(C)CN(c2cccc3oc(-c4cnc5ccc(OC[C@H]6CCC(=O)N6)nn45)cc23)CCN1
b. C[C@@H](N)COc1ccc2ncc(-c3cc4c(N5CCO[C@@H](C)C5)cccc4o3)n2n1
c. C[C@H]1CNCCN1c1cccc2oc(-c3cnc4ccc(OC[C@@H]5CCC(=O)N5)nn34)cc12
d. COC[C@H]1CCCN1c1cccc2oc(-c3cnc4ccc(OC)nn34)cc12
e. C[C@H](N)COc1ccc2ncc(-c3cc4c(N5CCOC[C@@H]5C)cccc4o3)n2n1
Prompt line: // sort entries: IC50, high to low Answer by writing out the labels in the requested order.
Response line: e, b, d, c, a
(e: 35.5 nM, b: 18.4 nM, d: 5 nM, c: 1.4 nM, a: 0.2 nM)

---

biological target: MKNK1 (Homo sapiens, UniProt Q9BUB5, T385D); construct: GST (N); purchased Carna Biosciences 02-145; host or cells: insect cells (baculovirus expression system); assay: MKNK1 kinase high ATP assay (TR-FRET-based); type: biochemical; details: Table 2a; 2 mM ATP, 15 min preincubation
metric: IC50 (nM)

# compound.structure.string, IC50 / nM
records = [
    ("O=C(NCCOc1ccc2ncc(-c3cc4ccccc4o3)n2n1)c1ccco1", 22.2),
    ("O=C(N[C@H]1C[C@H](Oc2ccc3ncc(-c4cc5ccccc5o4)n3n2)C1)C(F)(F)F", 18.8),
]

A. COCC(=O)N1CCC[C@H]1CCOc1ccc2ncc(-c3cc4ccccc4o3)n2n1
B. O=C(N[C@H]1C[C@H](Oc2ccc3ncc(-c4cc5ccccc5o4)n3n2)C1)C1CC1
Prompt line: Select the item with the higher value of IC50 from the options A and B listed. API: response body contains the label of the selected item.
Response line: B

---

target: MKNK1 (Homo sapiens, UniProt Q9BUB5, T385D); construct: GST (N); purchased Carna Biosciences 02-145; host or cells: insect cells (baculovirus expression system); assay: MKNK1 kinase assay (MKNK1 TR-FRET assay); format: biochemical; conditions: Table 1c; 10 μM ATP, 15 min preincubation
metric: IC50 (nM)

a. COc1ccc2ncc(-c3cc4c(N5CCN[C@@H](C)C5)nccc4o3)n2n1
b. CCN(CCOC(C)(C)C)c1nccc2oc(-c3cnc4ccc(OC[C@H]5CCC(=O)N5)nn34)cc12
c. CN(C)C1CCN(c2nccc3oc(-c4cnc5ccc(OC[C@H]6CCC(=O)N6)nn45)cc23)CC1
d. CCN(CCOC)c1nccc2oc(-c3cnc4ccc(OC[C@H](C)N)nn34)cc12
Prompt line: // ranking: key=IC50, reverse=True Respond with the label ranking, as requested.
Response line: a, c, d, b

---

biological target: MKNK1 (Homo sapiens, UniProt Q9BUB5, T385D); construct: GST (N); purchased Carna Biosciences 02-145; host or cells: insect cells (baculovirus expression system); assay: MKNK1 kinase assay (MKNK1 TR-FRET assay); format: biochemical; conditions: Table 1c; 10 μM ATP, 15 min preincubation
metric: IC50 (nM)

# molecule, measured.result
records = [
    ("CCN(CCOC(C)(C)C)c1nccc2oc(-c3cnc4ccc(OC[C@@H]5COCCN5)nn34)cc12 [III-39]", 0.9),
    ("CCN(CCOC)c1nccc2oc(-c3cnc4ccc(OCCC[S@@](C)(=O)=NC#N)nn34)cc12 [III-137]", 2.7),
]

A. c1cc2oc(-c3cnc4ccc(OC[C@H]5CCCCN5)nn34)cc2c(N2CCOCC2)n1 (stereo in doubt) [III-140]
B. O=C1CNC[C@H](COc2ccc3ncc(-c4cc5c(N6CCOCC6)nccc5o4)n3n2)N1 [III-89]
C. C[C@H](N)COc1ccc2ncc(-c3cc4c(N5CCC(N(C)C)CC5)nccc4o3)n2n1 [III-21]
D. C[C@H](N)COc1ccc2ncc(-c3cc4c(N5CC[C@H](N(C)C)C5)nccc4o3)n2n1 [III-115]
Prompt line: Order the records, beginning with the lowest IC50 and ending with the highest. Form field (ranking): labels in requested order.
Response line: B, C, D, A

---

molecular target: MKNK1 (Homo sapiens, UniProt Q9BUB5, T385D); construct: GST (N); purchased Carna Biosciences 02-145; host or cells: insect cells (baculovirus expression system); assay: MKNK1 kinase assay (MKNK1 TR-FRET assay); assay type: biochemical; conditions: Table 1b; 10 μM ATP, 15 min preincubation
metric: IC50 (nM)

# compound.structure.string, system.under.test, IC50 [nM]
records = [
    ("C[C@@H](N)COc1ccc2ncc(-c3cc4c(N5CCOC(C)(C)C5)cccc4o3)n2n1", "MKNK1 (Homo sapiens, UniProt Q9BUB5, T385D)", 16.7),
    ("C[C@H](N)COc1ccc2ncc(-c3cc4c(N5CCOC(C)(C)C5)cccc4o3)n2n1", "MKNK1 (Homo sapiens, UniProt Q9BUB5, T385D)", 23.6),
]

1. C[C@H](N)COc1ccc2ncc(-c3cc4c(N5CCO[C@@H](C)C5)cccc4o3)n2n1
2. C[C@H]1CN(c2cccc3oc(-c4cnc5ccc(OC[C@H]6CCC(=O)N6)nn45)cc23)CCN1
Prompt line: Of 1 and 2 , which shows the smaller IC50 value? Returns: label corresponding to the selected item.
Response line: 2

---

biological target: MKNK1 (Homo sapiens, UniProt Q9BUB5, T385D); construct: GST (N); purchased Carna Biosciences 02-145; host or cells: insect cells (baculovirus expression system); test: MKNK1 kinase assay (MKNK1 TR-FRET assay); assay type: biochemical; settings: Table 1c; 10 μM ATP, 15 min preincubation
pIC50: −log10 of the molar value.
metric: pIC50

# count of solved cases: 3
# compound.structure.string, metric, measured.result
measured = [
    ("C[C@H]1CN(c2nccc3oc(-c4cnc5ccc(OCC(F)(F)F)nn45)cc23)CCN1", "pIC50", 8.01),
    ("CN(C)[C@@H]1CCN(c2nccc3oc(-c4cnc5ccc(OC[C@H]6CCC(=O)N6)nn45)cc23)C1", "pIC50", 9.40),
    ("C[C@H]1CN(c2nccc3oc(-c4cnc5ccc(OCCCS(C)(=O)=O)nn45)cc23)CCN1", "pIC50", 8.43),
]

P. COc1ccc2ncc(-c3cc4c(N5CCN[C@H](C)C5)nccc4o3)n2n1
Q. CS(=O)(=O)CCCOc1ccc2ncc(-c3cc4c(N5CCOCC5)nccc4o3)n2n1
Prompt line: Higher pIC50: P or Q ? API: response body contains the label of the selected item.
Response line: Q
(Q: 8.66, P: 8.34)

---

Biological target: MKNK1 (Homo sapiens, UniProt Q9BUB5, T385D)
Construct: GST (N); purchased Carna Biosciences 02-145; host or cells: insect cells (baculovirus expression system)
Experiment: MKNK1 kinase high ATP assay (TR-FRET-based)
Type: biochemical
Conditions: Table 2a; 2 mM ATP, 15 min preincubation
Description: MKNK1 Kinase High ATP Assay MKNK1-inhibitory activity at high ATP of compounds of the present invention after their preincubation with MKNK1 was quantified employing the TR-FRET-based MKNK1 high ATP assay as described in the following paragraphs. […]
pIC50: −log10 of the molar value.
metric: pIC50

Some solved cases for reference:
# molecule, metric, measured.result
data = [
    ("CC(=O)N1CCC[C@H]1CCOc1ccc2ncc(-c3cc4ccccc4o3)n2n1 [Example I-2]", "pIC50", 8.51),
    ("Cc1nocc1C(=O)N1CCC[C@H]1CCOc1ccc2ncc(-c3cc4ccccc4o3)n2n1 [Example I-52]", "pIC50", 8.47),
]

1. O=C(NCCOc1ccc2ncc(-c3cc4ccccc4o3)n2n1)C1CCOCC1 [Example I-66]
2. CC(C)(C)C(=O)N1CCC[C@H]1CCOc1ccc2ncc(-c3cc4cc(Cl)ccc4o3)n2n1 [Example I-40]
Prompt line: Compare 1 and 2 and name the one whose reported pIC50 is smaller. Mark your selection by writing its label.
Response line: 2
(2: 7.12, 1: 7.83)

P. COc1cccc2oc(-c3cnc4ccc(OC[C@@H]5CCC(=O)N5)nn34)cc12 [Example I-19]
Q. O=C(C1CCCC1)N1CCC[C@H]1CCOc1ccc2ncc(-c3cc4ccccc4o3)n2n1 [Example I-56]
Prompt line: Sorting by pIC50 in descending order, would P or Q appear first? Write down the label attached to your selection.
Response line: Q
(Q: 8.42, P: 7.81)

A. Cn1cc(C(=O)N2CCC[C@H]2CCOc2ccc3ncc(-c4cc5ccccc5o4)n3n2)cn1 [Example I-48]
B. O=C(NCCOc1ccc2ncc(-c3cc4ccccc4o3)n2n1)C1CC1 [Example I-15]
C. CC(=O)NC[C@H](Oc1ccc2ncc(-c3cc4ccccc4o3)n2n1)c1cccnc1 [Example I-35]
Prompt line: Put the items in sequence by pIC50, from largest down. Form field (ranking): labels in requested order.
Response line: A, B, C
(A: 8.64, B: 7.90, C: 7.32)

I. O=C1CC[C@H](COc2ccc3ncc(-c4cc5ccccc5o4)n3n2)N1 [Example I-9]
II. CC(=O)NC(COc1ccc2ncc(-c3cc4ccccc4o3)n2n1)c1cccnc1 (centres unmarked) [Example I-34]
III. Cn1ccc(C(=O)NCCOc2ccc3ncc(-c4cc5ccccc5o4)n3n2)n1 [Example I-79]
Prompt line: Order the records so the highest pIC50 appears first and the lowest last. Kindly provide the labels arranged according to the requested ordering.
Response line: I, III, II
